Assay Info: Determination of the lethal dose 50 (MILLER and TAINTER)
Study Conditions: in vivo, ip; intraperitoneal route
Note to self: use criterion met only for LD50 readings below 400 mg/kg; a reading exactly at 400 mg/kg still gets criterion not met.

* Cc1cccc(Cl)c1NC(=O)c1cc(C)n(C)n1 [Compound 5] | criterion not met
* Cc1cccc(C)c1NC(=O)c1cc(C)n(C)n1 [Compound 4] | criterion met
* Cc1cccc(C)c1NC(=O)c1cc(CF)on1 [Compound 31] | criterion met
* CC(=O)n1nc(C(=O)Nc2c(C)cccc2Cl)cc1C [Compound 2] | criterion met
* Cc1cccc(C)c1C(=O)Nc1cc(C)n(C)n1 [Compound 3] | criterion not met
